- measured_on: rat pancreatic lipase (Rattus norvegicus)
- Sequence (P27657 17-465): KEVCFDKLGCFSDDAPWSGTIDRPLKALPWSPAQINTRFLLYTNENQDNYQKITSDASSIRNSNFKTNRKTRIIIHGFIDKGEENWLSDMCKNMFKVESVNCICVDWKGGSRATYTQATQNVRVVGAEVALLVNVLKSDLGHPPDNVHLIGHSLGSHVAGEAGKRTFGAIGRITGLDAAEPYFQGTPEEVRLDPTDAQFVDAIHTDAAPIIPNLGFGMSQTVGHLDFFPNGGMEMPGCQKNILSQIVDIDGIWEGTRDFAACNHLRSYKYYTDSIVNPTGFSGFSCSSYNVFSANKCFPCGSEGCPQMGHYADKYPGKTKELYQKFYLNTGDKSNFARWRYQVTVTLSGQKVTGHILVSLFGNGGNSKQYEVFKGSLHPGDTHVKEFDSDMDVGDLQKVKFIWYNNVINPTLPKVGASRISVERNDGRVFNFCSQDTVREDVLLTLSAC
Record form. Attribute: pKi. Fill in for each entry.
Scale explanation: pKi corresponds to minus log10 of a concentration expressed in moles per litre.

Prompt: I would be grateful if you could share the reported pKi for CC(CCCCC(=O)O)[C@H]1CC[C@H]2[C@@H]3CC[C@@H]4C[C@H](O)CC[C@]4(C)[C@H]3C[C@H](O)[C@]12C (some centres unmarked) .
Completion: 2.05

Prompt: Subsequent entry: "C[C@H](C/C=C/C=C/CC(=O)O)[C@H]1CC[C@H]2[C@@H]3CC[C@@H]4C[C@H](O)CC[C@]4(C)[C@H]3C[C@H](O)[C@]12C"
Completion: 3.00
